Let's look at some molecules and their measured IC50.
- ASSAY TARGET: human ADRA2C receptor (Homo sapiens (Human))
- Sequence (P18825 whole entry): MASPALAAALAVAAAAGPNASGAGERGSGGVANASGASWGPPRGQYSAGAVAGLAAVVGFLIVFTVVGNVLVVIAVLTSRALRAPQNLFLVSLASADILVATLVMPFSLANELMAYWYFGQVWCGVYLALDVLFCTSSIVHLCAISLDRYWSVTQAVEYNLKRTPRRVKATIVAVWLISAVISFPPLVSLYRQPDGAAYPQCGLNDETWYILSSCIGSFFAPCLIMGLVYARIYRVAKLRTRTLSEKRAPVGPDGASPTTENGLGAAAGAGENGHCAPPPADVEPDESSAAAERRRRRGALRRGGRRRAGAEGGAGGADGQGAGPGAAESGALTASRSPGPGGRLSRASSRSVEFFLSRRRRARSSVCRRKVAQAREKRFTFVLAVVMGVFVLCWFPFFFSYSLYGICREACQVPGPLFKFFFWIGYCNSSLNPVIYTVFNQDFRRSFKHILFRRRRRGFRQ
- EXPERIMENTAL DETAILS: In vitro activity assay to determine the inhibition of recombinant ADRA2C (CHO-K1 cells, aequorin bioluminescence)
- Type: cell-based
- CONDITION DETAILS: inhibition of noradrenaline-induced bioluminescence signal; some mean values from multiple determinations; read-out: ARα2C IC50
API: value field is a number in nM; no unit string.

The examples below pair each entry with its known result.
C[C@@H]1CCCN(C2CCN(c3ncc(C(=O)NC4(c5ncc(F)cc5F)CC4)s3)CC2)C1; 10
Cc1cc(C)c(CNC(=O)c2cnc(N3CCC(N4CCC[C@@H](C)C4)CC3)s2)cn1; 755
C[C@@H]1CCCN(C2CCN(c3nc(C(F)(F)F)c(C(=O)NCc4ncc(F)cc4F)s3)CC2)C1; 140

Next item in the queue.
Sample CCc1sc(N2CCC(N3CCC[C@@H](C)C3)CC2)nc1C(=O)NCc1ncc(F)cc1F — what was its IC50?
107

The reported measurements were obtained from patent US20240000767A1.
